# System: HepG2 cells
# Experiment: HepG2 cytotoxicity assay
# Conditions: HepG2 values of the three screens unified
# Method: Briefly, HepG2 cells were seeded onto compound-treated 384 well plates at a density of 2,500 cells per well in Minimal Essential Medium (MEM) plus 10% fetal bovine serum and 1% non-essential amino acids solution (NEAA). […] Cell viability was then measured in a fluorescent plate reader and percent inhibition calculated with respect to positive and negative controls.
Observed Property: Unified cytotox (µM)
Hi! Could you send only the number? It should be in µM, unit omitted.

[ask] Please give the measured Unified cytotox for this compound: `Cc1cc(F)ccc1-c1nc(NCCCNCCc2ccccc2)nc2c1ccc(=O)n2-c1c(F)cccc1F.O=C(O)C(F)(F)F`
[reply] 12.04

[ask] Please give the measured Unified cytotox for this compound: Cc1ccnc(NC(c2cccc(Cl)c2Cl)c2ccc3cccnc3c2O)c1 (stereo not shown)
[reply] 24.29

[ask] Please give the measured Unified cytotox for this compound: `COc1ccc2nccc([C@@H](O)CN3CCC(NC(=O)/C=C/c4c[nH]c5c(C)cccc45)CC3)c2c1`
[reply] 51.29

Now for the compound whose Unified cytotox we want.
[ask] Please give the measured Unified cytotox for this compound: `Cc1[nH]c(C)c(-c2ccc(-c3cc(C(F)(F)F)cc(C(F)(F)F)c3)nc2)c(=O)c1Br`
[reply] 1.26

====

Each entry below carries its recorded log10 IC50.
# Tested on: P. berghei ookinete development
# Conditions: read-out: Pb ODA (this manuscript) IC50; P. berghei ookinete development assay; this manuscript
Log scale reminder: IC50 in µM, then log10 taken.

Solved cases below.
[ask] Please give the measured log10 IC50 for this compound: `CCCCCCCc1cc(=O)c2ccccc2[nH]1`
[reply] 0.06

[ask] Please give the measured log10 IC50 for this compound: `CNC(=O)c1cc(F)c(F)cc1Nc1nc(Nc2cccc(CS(C)(=O)=O)c2)ncc1Cl.O=CO`
[reply] 0.33

[ask] Please give the measured log10 IC50 for this compound: `Cc1[nH]c(C)c(-c2ccc(Oc3ccc(OC(F)(F)F)cc3)cc2)c(=O)c1Br`
[reply] 0.90

[ask] Please give the measured log10 IC50 for this compound: `Br.CC1(C)NC(N)=NC(=N)N1OCCCOc1cc(Cl)ccc1Cl`
[reply] 0.53

[ask] Please give the measured log10 IC50 for this compound: `Cc1[nH]c(C)c([N+](=O)[O-])c(=O)c1-c1ccc(Oc2ccc(OC(F)(F)F)cc2)cc1`
[reply] 0.45

[ask] Please give the measured log10 IC50 for this compound: `COc1cccc(CNCC(C)(C)c2nc(-c3ccc(Cl)c(O)c3)c(-c3ccncc3)[nH]2)c1.Cl`
[reply] 0.57

[ask] Please give the measured log10 IC50 for this compound: `Cc1cccc2nc(-c3ccc(-c4ccc(CN5CCOCC5)cc4)cc3)[nH]c12.O=C(O)C(F)(F)F`
[reply] -0.20

[ask] Please give the measured log10 IC50 for this compound: `Cc1ccc(S(=O)(=O)N2CCCN(C(=O)c3cc(-c4ccccc4)n[nH]3)CC2)cc1`
[reply] 0.73

[ask] Please give the measured log10 IC50 for this compound: `CCCCCCCc1c(C)nc2cccc(OC)c2c1O`
[reply] 0.06

[ask] Please give the measured log10 IC50 for this compound: `COc1c(C)[nH]c(C)c(-c2ccc(Oc3cccc(C(F)(F)F)c3)cc2)c1=O`
[reply] 0.56

---
[ask] Please give the measured log10 IC50 for this compound: COc1ccc2nccc(NC(=O)C3CCC(NCc4cnc(SC)c([N+](=O)[O-])c4)CC3)c2n1.Cl (stereo not shown)
[reply] 0.38

[ask] Please give the measured log10 IC50 for this compound: `Cc1[nH]c(C)c(-c2ccc(OCCCc3ccccn3)cc2)c(=O)c1Br.Cl`
[reply] -0.23

[ask] Please give the measured log10 IC50 for this compound: `COc1ccc2ncc(C#N)c(CCN3CCC(NCc4ccc5c(c4)NC(=O)CO5)CC3)c2c1.Cl`
[reply] -0.34

[ask] Please give the measured log10 IC50 for this compound: `COc1cccc(C=Cc2nc(=O)c3ccccc3o2)c1OC`
[reply] -1.30

[ask] Please give the measured log10 IC50 for this compound: `COc1ccc(NC2=C(c3ccccc3)C(=O)c3ccccc32)cn1`
[reply] 0.30

[ask] Please give the measured log10 IC50 for this compound: `CC(=O)Oc1c(Br)c(C)nc(C)c1-c1ccc(Oc2ccc(OC(F)(F)F)cc2)cc1`
[reply] -0.23

[ask] Please give the measured log10 IC50 for this compound: `COc1ccc(Cn2ncc3c4c(N)nc(N)nc4ccc32)cc1OC`
[reply] 0.18

[ask] Please give the measured log10 IC50 for this compound: `NC(=O)c1ccccc1Nc1nc(Nc2cc[nH]n2)ncc1Cl`
[reply] -0.29

[ask] Please give the measured log10 IC50 for this compound: `CC1(C)NC(N)=NC(=N)N1OCOc1ccc(Cl)cc1.Cl`
[reply] 0.42

====

# System: P. falciparum late stage (stages IV-V) gametocytes
# Experiment: P. falciparum late stage gametocyte ATP depletion assay (Pf GC-ATP)
# Conditions: 1: YES; 0: NO
Observed Property: Is compound selective in assay? Pf GC-ATP active?

Solved cases below.
[ask] Form: Entry = `CCN(CC)/C(=N/C(=N)NCc1ccc(Cl)cc1Cl)NCCCCCCN/C(=N\C(=N)NCc1ccc(Cl)cc1Cl)N(CC)CC` | System = P. falciparum late stage (stages IV-V) gametocytes | Is compound selective in assay? Pf GC-ATP active? = ____
[reply] 1 (1: YES)

[ask] Form: Entry = `CCN(CC)/C(=N/C(=N)Nc1ccc(Cl)cc1)NCCCCCCCCN/C(=N\C(=N)Nc1ccc(Cl)cc1)N(CC)CC` | System = P. falciparum late stage (stages IV-V) gametocytes | Is compound selective in assay? Pf GC-ATP active? = ____
[reply] 1 (1: YES)

[ask] Form: Entry = CCC(CSC1CCCCC1)N(C)CCN(C)C(CC)CSC1CCCCC1.Cl (stereo not drawn) | System = P. falciparum late stage (stages IV-V) gametocytes | Is compound selective in assay? Pf GC-ATP active? = ____
[reply] 0 (0: NO)

[ask] Form: Entry = `COc1cccc(OC)c1CN1CCC(N(C)CCCCCCCCN2CCC(OC(=O)Nc3ccccc3-c3ccccc3)CC2)CC1` | System = P. falciparum late stage (stages IV-V) gametocytes | Is compound selective in assay? Pf GC-ATP active? = ____
[reply] 0 (0: NO)

[ask] Form: Entry = `Cc1cccnc1Nc1nc(-c2ccccn2)cs1` | System = P. falciparum late stage (stages IV-V) gametocytes | Is compound selective in assay? Pf GC-ATP active? = ____
[reply] 1 (1: YES)

---
[ask] Form: Entry = Cl.N=c1n(CCN2CCCCC2)c2ccccc2n1CC(O)c1ccc(Cl)c(Cl)c1 (stereo not drawn) | System = P. falciparum late stage (stages IV-V) gametocytes | Is compound selective in assay? Pf GC-ATP active? = ____
[reply] 0 (0: NO)

[ask] Form: Entry = `COc1cc2nc(N3CCC(CCCC4CCNCC4)CC3)nc(NCc3ccccn3)c2cc1OC.O=C(O)C(F)(F)F` | System = P. falciparum late stage (stages IV-V) gametocytes | Is compound selective in assay? Pf GC-ATP active? = ____
[reply] 1 (1: YES)

====

Each entry below carries its recorded Is compound selective in assay? Pf FGAA active?.
# Test system: P. falciparum female gametocytes
# Experiment: P. falciparum female gametogenesis assay (Pf FGAA)
# Conditions: 1: YES; 0: NO; >10-fold selectivity over cytotox

Solved cases below.
[ask] Please give the measured Is compound selective in assay? Pf FGAA active? for this molecule: `O=C(NCC1CCN(CCN2CCC(c3cn(CCO)c4ccccc34)CC2)CC1)c1ccc(-c2ccc(C(F)(F)F)cc2)cc1`
[reply] 0 (0: NO)

[ask] Please give the measured Is compound selective in assay? Pf FGAA active? for this molecule: `O=C(Nc1ccc(-c2ccccc2)c(OCCN2CCNCC2)c1)c1ccc(-c2ccc(Cl)cc2)cc1`
[reply] 0 (0: NO)

Now for the molecule whose Is compound selective in assay? Pf FGAA active? we want.
[ask] Please give the measured Is compound selective in assay? Pf FGAA active? for this molecule: `CC(C)Cn1cc(C2CCN(CCN3CCC(CNC(=O)c4ccc(-c5ccc(C#N)cc5)cc4)CC3)CC2)c2ccccc21`
[reply] 0 (0: NO)

====

# System: 3D7-strain P. falciparum asexual parasites
# Experiment: P. falciparum asexual growth inhibition assay (Pf GIA)
# Assay type: cell-based, Plasmodium falciparum
# Conditions: dose response confirmation; read-out: Pf asexual growth inhibition assays IC50
Each entry below carries its recorded pIC50.
// pIC50 here means minus log10 of the molar concentration (mol/L)

[ask] Please give the measured pIC50 for this compound: `CCCCCCCc1cc(=O)c2ccccc2[nH]1`
[reply] 6.34

---
[ask] Please give the measured pIC50 for this compound: `Cc1cc(=O)c(-c2ccc(Oc3cccc(C(F)(F)F)c3)cc2)c(C)[nH]1`
[reply] 6.41

[ask] Please give the measured pIC50 for this compound: `COc1cccc(CC(=O)N2CCC(n3c(C)nc4ccc(F)cc43)CC2)c1`
[reply] 6.68

[ask] Please give the measured pIC50 for this compound: `Cc1[nH]c(C)c(-c2ccc(CCc3ccc(C(F)(F)F)cc3)nc2)c(=O)c1Cl`
[reply] 7.28
